Target: T1, human FAPα-His tag (Sino biological) (human, UniProt Q12884 26-760)
T1 construct: Bought protein; also called human FAPα-His protein; not shown: His tag
T1 sequence (looked up): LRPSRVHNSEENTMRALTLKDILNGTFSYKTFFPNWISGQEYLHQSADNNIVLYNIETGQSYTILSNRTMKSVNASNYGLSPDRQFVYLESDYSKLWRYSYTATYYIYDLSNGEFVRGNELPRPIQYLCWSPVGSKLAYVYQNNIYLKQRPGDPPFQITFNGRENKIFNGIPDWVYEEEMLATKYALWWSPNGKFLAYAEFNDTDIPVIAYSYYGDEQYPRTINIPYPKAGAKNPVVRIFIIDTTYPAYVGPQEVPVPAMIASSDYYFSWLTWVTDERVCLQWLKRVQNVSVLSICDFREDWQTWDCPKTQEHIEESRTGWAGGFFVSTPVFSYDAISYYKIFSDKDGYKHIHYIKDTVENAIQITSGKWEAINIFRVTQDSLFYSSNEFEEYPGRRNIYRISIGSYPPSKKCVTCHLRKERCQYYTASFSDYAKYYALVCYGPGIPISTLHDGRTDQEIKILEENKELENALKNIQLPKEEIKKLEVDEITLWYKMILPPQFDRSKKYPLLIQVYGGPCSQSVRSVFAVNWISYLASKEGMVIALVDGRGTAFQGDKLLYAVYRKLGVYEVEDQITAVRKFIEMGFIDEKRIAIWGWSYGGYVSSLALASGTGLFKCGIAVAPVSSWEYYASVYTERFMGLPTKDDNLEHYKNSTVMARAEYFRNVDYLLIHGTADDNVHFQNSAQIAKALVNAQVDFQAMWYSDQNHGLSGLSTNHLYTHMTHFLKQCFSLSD
Assay: competitive ELISA on coated human FAPα; competitor (detected): FAPα (BMK)-Bio

>  <binder>
J40 (antibody, V domains shown, Tested as a mAb; also called FAP-J40; FAP-J40-Bio (biotin-conjugated form)) VH: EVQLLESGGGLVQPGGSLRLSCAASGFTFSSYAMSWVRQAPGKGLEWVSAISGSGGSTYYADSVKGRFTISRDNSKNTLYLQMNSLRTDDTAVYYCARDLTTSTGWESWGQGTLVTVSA VL: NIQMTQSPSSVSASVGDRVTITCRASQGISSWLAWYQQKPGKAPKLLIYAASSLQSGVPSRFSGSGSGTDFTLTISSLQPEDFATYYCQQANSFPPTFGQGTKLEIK

>  <units.label>
OD 450 nm

>  <OD 450 nm>
0.343

$$$$
